Species on record: Rattus norvegicus
Experiment: DrugMatrix - Regimen: Daily Repeat
Assay type: toxicity, organism-based, Sprague-Dawley
Parameters: regimen Daily Repeat, gender Male, age 6-8 weeks
Conditions: in vivo, po, 0 mg/kg, 72 h, tissue Blood, route oral GAVAGE, dose level Control, time 3 day, vehicle .5 % CMC
compounds and their reported LYMPHOCYTE
// return numeric value only (unit: %, not printed)

>>> print(df.to_string())
              compound  reported_result
0  N=C(N)NCCN1CCCCCCC1             87.5

get_value(item= C1CCC(C(CC2CCCCN2)C2CCCCC2)CC1 (stereo not drawn) , readout=LYMPHOCYTE) returns 76.98

get_value(item= `OCCN(CCO)c1nc(N2CCCCC2)c2nc(N(CCO)CCO)nc(N3CCCCC3)c2n1` , readout=LYMPHOCYTE) returns 87.5

* * *

Organism: Rattus norvegicus
Assay: DrugMatrix - Regimen: Daily Repeat
Type: toxicity, organism-based, Sprague-Dawley
Set-up: regimen Daily Repeat, gender Male, age 6-8 weeks
Conditions: in vivo, po, 0 mg/kg, 120 h, tissue Blood, route oral GAVAGE, dose level Control, time 5 day, vehicle 100 % WATER
experimental_readout: LEUKOCYTE COUNT (x10E3/uL)
// return numeric value only (unit: x10E3/uL, not printed)

The examples below pair each entry with its known result.
>>> print(df.to_string())
                                   compound  reported_result
0            N[C@@H](Cc1ccc(O)c(O)c1)C(=O)O             8.42
1           C[C@](N)(Cc1ccc(O)c(O)c1)C(=O)O             14.6
2          C[C@H](CS)C(=O)N1CCC[C@H]1C(=O)O            14.75
3  C[C@H]1c2cccc(O)c2C(=O)C2=C(O)[C@]3(O)C(=O)C(C(N)=O)=C(O)[C@@H](N(C)C)[C@@H]3[C@@H](O)[C@@H]21.O             8.42
4                              NCCCCCC(=O)O            15.48

get_value(item= `Cn1cc[nH]c1=S` , readout=LEUKOCYTE COUNT) returns 8.18

get_value(item= `c1ccc([C@H]2CN3CCSC3=N2)cc1` , readout=LEUKOCYTE COUNT) returns 13.67

get_value(item= `Nc1c2c(nc3ccccc13)CCCC2` , readout=LEUKOCYTE COUNT) returns 12.34

get_value(item= C=CCC1(C(C)CCC)C(=O)NC(=O)NC1=O (centres undefined) , readout=LEUKOCYTE COUNT) returns 8.73

* * *

Species on record: Rattus norvegicus
Assay: DrugMatrix - Regimen: Daily Repeat
Format: toxicity, organism-based, Sprague-Dawley
Parameters: regimen Daily Repeat, gender Male, age 6-8 weeks
Conditions: in vivo, po, 0 mg/kg, 72 h, tissue Plasma, route oral GAVAGE, dose level Control, time 3 day, vehicle .5 % CMC
experimental_readout: SODIUM (MEQ/L)
// return numeric value only (unit: MEQ/L, not printed)

The examples below pair each entry with its known result.
>>> print(df.to_string())
                                   compound  result_unit  reported_result
0          ClC(Br)Br [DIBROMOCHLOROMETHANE]        MEQ/L            141.2
1  CCOP(=S)(OCC)Oc1nc(Cl)c(Cl)cc1Cl [CHLORPYRIFOS]        MEQ/L           145.67
2  Cc1ccc(/N=C/N(C)/C=N/c2ccc(C)cc2C)c(C)c1 [AMITRAZ]        MEQ/L           142.22

get_value(item= CC1CC(OC(=O)C(O)c2ccccc2)CC(C)(C)C1 (centres undefined) [CYCLANDELATE] , readout=SODIUM) returns 143.5

get_value(item= CCn1cc(C(=O)O)c(=O)c2cc(F)c(N3CCNCC3)cc21 [NORFLOXACIN] , readout=SODIUM) returns 142.22

get_value(item= CN1CCN(CCCN2c3ccccc3Sc3ccc(Cl)cc32)CC1 [PROCHLORPERAZINE] , readout=SODIUM) returns 141.47

* * *

Organism: Rattus norvegicus
Experiment: DrugMatrix - Regimen: Daily Repeat
Type: toxicity, organism-based, Sprague-Dawley
Design: regimen Daily Repeat, gender Male, age 6-8 weeks
Details: in vivo, po, 0 mg/kg, 120 h, tissue Blood, route oral GAVAGE, dose level Control, time 5 day, vehicle .5 % CMC
experimental_readout: PLATELET COUNT (x10E3/uL)
// return numeric value only (unit: x10E3/uL, not printed)

                                   compound  experimental_readout  reported_result
0  CCCCc1oc2ccccc2c1C(=O)c1cc(I)c(OCCN(CC)CC)c(I)c1        PLATELET COUNT          1053.67
1                       N=C(N)NCCN1CCCCCCC1        PLATELET COUNT          1042.83
2       Nc1ccn([C@H]2CC[C@@H](CO)O2)c(=O)n1        PLATELET COUNT           1028.5
3                COc1nc(C)nc(Cl)c1N=C1NCCN1        PLATELET COUNT          1211.67
4                                 ClC(Cl)Br        PLATELET COUNT            907.5

get_value(item= `ClC(Br)Br` , readout=PLATELET COUNT) returns 907.5

get_value(item= `CN1CCN(CCCN2c3ccccc3Sc3ccc(Cl)cc32)CC1` , readout=PLATELET COUNT) returns 1248.17

get_value(item= `O=C(CCCN1CC=C(n2c(=O)[nH]c3ccccc32)CC1)c1ccc(F)cc1` , readout=PLATELET COUNT) returns 1298

get_value(item= C1CCC(C(CC2CCCCN2)C2CCCCC2)CC1 (centres undefined) , readout=PLATELET COUNT) returns 1062.2

* * *

Species on record: Rattus norvegicus
Test: DrugMatrix - Regimen: Daily Repeat
Format: toxicity, organism-based, Sprague-Dawley
Parameters: regimen Daily Repeat, gender Male, age 6-8 weeks
Details: in vivo, po, 0 mg/kg, 72 h, tissue Blood, route oral GAVAGE, dose level Control, time 3 day, […]
compounds and their reported BASOPHIL
// return numeric value only (unit: %, not printed)

The examples below pair each entry with its known result.
In [3]: df
Out[3]:
                                   compound  result_unit  reported_result
0  CC/C(=C(\c1ccccc1)c1ccc(OCCN(C)C)cc1)c1ccccc1 [TAMOXIFEN]            %                0
1    Nc1nc2nc[nH]c2c(=S)[nH]1 [THIOGUANINE]            %                0

Now consider a different compound.
get_value(item= O=NN(CCCl)C(=O)NC1CCCCC1 [LOMUSTINE] , readout=BASOPHIL) returns 0

* * *

Organism: Rattus norvegicus
Test: DrugMatrix - Regimen: Daily Repeat
Type: toxicity, organism-based, Sprague-Dawley
Design: regimen Daily Repeat, gender Male, age 6-8 weeks
Conditions: in vivo, po, 0 mg/kg, 120 h, tissue Plasma, route oral GAVAGE, dose level Control, time 5 day, vehicle .5 % CMC
experimental_readout: POTASSIUM (MEQ/L)
// return numeric value only (unit: MEQ/L, not printed)

get_value(item= `N=C(N)NCCN1CCCCCCC1` , readout=POTASSIUM) returns 6.27

* * *

Organism: Rattus norvegicus
Assay: DrugMatrix - Regimen: Daily Repeat
Type: toxicity, organism-based, Sprague-Dawley
Set-up: regimen Daily Repeat, gender Male, age 6-8 weeks
Details: in vivo, po, 0 mg/kg, 120 h, tissue Plasma, route oral GAVAGE, dose level Control, time 5 day, vehicle .5 % CMC
Sorting guide: entries reporting ASPARTATE AMINOTRANSFERASE beneath 70 u/L go in the Condition met pile, the rest go in the Condition not met pile.

Below, 2 compounds whose answers are already recorded.
>>> print(df.to_string())
                                   compound         class_name
0  OCCN(CCO)c1nc(N2CCCCC2)c2nc(N(CCO)CCO)nc(N3CCCCC3)c2n1      Condition met
1  CCCN1C[C@H](CSC)C[C@@H]2c3cccc4[nH]cc(c34)C[C@H]21 [PERGOLIDE]  Condition not met

With those in mind, consider the next compound.
-- ask A record lists NC1=NC(=O)C(c2ccccc2)O1 (stereo not drawn) . Is its ASPARTATE AMINOTRANSFERASE below 70 u/L?
-- reply Condition met
